Reference for the values: patent US20240109974A1

Target: T1, Human TNFR2-His (Sino 10417-H08H) (human, UniProt P20333 23-257)
T1 construct: Bought protein; also called recombinant human TNFR2 protein; not shown: His tag
T1 sequence (looked up): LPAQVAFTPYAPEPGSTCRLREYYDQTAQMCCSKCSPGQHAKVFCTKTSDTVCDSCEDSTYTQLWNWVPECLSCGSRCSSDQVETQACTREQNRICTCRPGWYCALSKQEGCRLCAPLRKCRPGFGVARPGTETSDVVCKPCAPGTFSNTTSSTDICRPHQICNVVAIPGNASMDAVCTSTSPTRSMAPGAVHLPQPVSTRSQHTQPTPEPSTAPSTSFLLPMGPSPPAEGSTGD
Assay: SPR (Biacore T200), antibody captured on Protein A chip
Method: Biacore was used to detect the specific binding of a test anti-TNFR2 antibody to human and cynomolgus monkey TNFR2 proteins. In this experiment, a Protein A chip was used, the time required for the chip to capture the diluted antibody was determined by manual run, so that the Rmax of the saturated binding to an antigen was 50 RU. […] The affinity of an antibody for an antigen was determined by using multi-cycle dynamics. […]
In this section, each of the binders is paired with its reported koff.
Number in s⁻¹, nothing else.

In the examples that follow, each entry is paired with its recorded koff.
binder	measured-value
219-Hu5 (antibody, V domains shown, also called VH7 + VL5) VH: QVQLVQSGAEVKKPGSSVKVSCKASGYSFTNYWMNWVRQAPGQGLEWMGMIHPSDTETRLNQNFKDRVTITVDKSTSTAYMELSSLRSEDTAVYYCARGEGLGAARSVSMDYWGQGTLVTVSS VL: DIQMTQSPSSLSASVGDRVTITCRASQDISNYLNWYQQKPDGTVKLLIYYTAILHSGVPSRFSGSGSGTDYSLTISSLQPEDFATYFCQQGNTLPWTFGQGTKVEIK	0.000137
224-Hu4 (antibody, V domains shown, Humanized form of #224; also called VH9 + VL6) VH: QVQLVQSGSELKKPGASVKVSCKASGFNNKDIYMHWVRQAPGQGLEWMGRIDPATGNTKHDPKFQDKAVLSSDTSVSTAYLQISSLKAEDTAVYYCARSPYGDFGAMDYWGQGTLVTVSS VL: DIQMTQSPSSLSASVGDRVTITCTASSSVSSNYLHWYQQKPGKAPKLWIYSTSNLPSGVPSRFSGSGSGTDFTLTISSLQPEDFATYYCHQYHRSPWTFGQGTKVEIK	0.00072

Here is another binder to look at.
query: Fill in koff for record 224-WT (antibody, V domains shown, Human-murine chimeric wild-type molecule; also called human-murine chimeric antibody WT of #224) VH: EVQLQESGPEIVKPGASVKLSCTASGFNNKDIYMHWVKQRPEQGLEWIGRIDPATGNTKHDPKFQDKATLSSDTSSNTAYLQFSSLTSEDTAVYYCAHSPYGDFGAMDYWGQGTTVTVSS VL: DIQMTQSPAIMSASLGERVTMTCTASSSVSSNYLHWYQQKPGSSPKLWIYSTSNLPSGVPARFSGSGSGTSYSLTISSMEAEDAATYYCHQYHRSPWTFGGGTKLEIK
result: 0.000405
